# credit: patent US20120172384A1

- TARGET_OR_SYSTEM: ZAP-70 (Homo sapiens, UniProt P43403)
- Construct: endogenous in cells
- Sequence (P43403 1-619): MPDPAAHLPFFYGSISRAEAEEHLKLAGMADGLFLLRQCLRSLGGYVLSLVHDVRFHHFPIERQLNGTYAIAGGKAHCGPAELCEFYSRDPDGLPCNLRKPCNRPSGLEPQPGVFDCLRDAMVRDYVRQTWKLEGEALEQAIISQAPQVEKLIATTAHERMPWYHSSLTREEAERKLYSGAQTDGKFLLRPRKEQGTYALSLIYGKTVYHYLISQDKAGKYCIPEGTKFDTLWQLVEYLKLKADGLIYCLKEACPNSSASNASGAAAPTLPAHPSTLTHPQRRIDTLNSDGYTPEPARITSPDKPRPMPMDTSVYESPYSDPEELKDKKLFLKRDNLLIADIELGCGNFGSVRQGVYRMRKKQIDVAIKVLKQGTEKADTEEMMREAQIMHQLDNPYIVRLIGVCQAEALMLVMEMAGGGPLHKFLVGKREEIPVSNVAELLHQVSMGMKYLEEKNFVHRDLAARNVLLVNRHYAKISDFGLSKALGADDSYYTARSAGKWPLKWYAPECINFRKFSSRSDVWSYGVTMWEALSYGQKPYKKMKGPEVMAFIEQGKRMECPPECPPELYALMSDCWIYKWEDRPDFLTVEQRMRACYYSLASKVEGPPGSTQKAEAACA
- PROTOCOL_SUMMARY: ZAP-70 kinobeads assay
- STUDY_CONDITIONS: cell lysate, dot blot with ZAP-70 antibody
pIC50: −log10 of the molar value.
Overview of recorded pIC50 for various molecules
READOUT_NAME: pIC50

>>> df
                                smiles_text      measured
0  CCCn1nc(C)cc1Nc1ncc(Cl)c(Nc2ccc(OC)cc2NS(C)(=O)=O)n1        ≥ 7.00
1  COc1ccc(Nc2nc(Nc3ccon3)ncc2Cl)c(NS(C)(=O)=O)c1  6.00 to 7.00
2  CS(=O)(=O)Nc1ccccc1Nc1nc(Nc2cnoc2)ncc1Cl  5.00 to 6.00
3  CCn1cc(Nc2ncc(F)c(Nc3ccccc3NS(C)(=O)=O)n2)c(C)n1  5.00 to 6.00
4  COc1ccc(Nc2nc(Nc3cnn(C)c3)ncc2Cl)c(NS(C)(=O)=O)c1        ≥ 7.00
5  COc1ccc(Nc2nc(Nc3cnn(C)c3)ncc2F)c(NS(C)(=O)=O)c1  6.00 to 7.00
6  CCc1nn(C)c(Nc2ncc(Cl)c(Nc3ccc(OC)cc3NS(C)(=O)=O)n2)c1C  5.00 to 6.00
7  Cn1cc(Nc2ncc(Br)c(Nc3ccccc3NS(C)(=O)=O)n2)cn1  6.00 to 7.00
8  CCn1cc(Nc2ncc(Cl)c(Nc3ccc(OC)cc3NS(C)(=O)=O)n2)c(C)n1  6.00 to 7.00

====

- TARGET_OR_SYSTEM: ZAP-70 (Homo sapiens, UniProt P43403)
- Construct: endogenous in cells
- PROTOCOL_SUMMARY: ZAP-70 kinobeads assay
- STUDY_CONDITIONS: cell lysate, dot blot with ZAP-70 antibody
pIC50: −log10 of the molar value.
Overview of recorded pIC50 for various compounds
READOUT_NAME: pIC50

>>> df
                                   compound  readout_name      measured
0  COc1ccc(Nc2nc(Nc3c(C)noc3C)ncc2Cl)c(NS(C)(=O)=O)c1 [Example 19]         pIC50  5.00 to 6.00
1  Cc1nn(C)cc1Nc1ncc(Cl)c(Nc2ccccc2NS(C)(=O)=O)n1 [Example 35]         pIC50        ≥ 7.00
2  CCn1cc(Nc2ncc(F)c(Nc3ccc(OC)cc3NS(C)(=O)=O)n2)c(C)n1 [Example 34]         pIC50  6.00 to 7.00
3  COCCn1nc(C)cc1Nc1ncc(Cl)c(Nc2ccc(OC)cc2NS(C)(=O)=O)n1 [Example 96]         pIC50  6.00 to 7.00

====

- TARGET_OR_SYSTEM: JAK3 (Homo sapiens)
- Construct: endogenous in cells
- Sequence (P52333 whole entry): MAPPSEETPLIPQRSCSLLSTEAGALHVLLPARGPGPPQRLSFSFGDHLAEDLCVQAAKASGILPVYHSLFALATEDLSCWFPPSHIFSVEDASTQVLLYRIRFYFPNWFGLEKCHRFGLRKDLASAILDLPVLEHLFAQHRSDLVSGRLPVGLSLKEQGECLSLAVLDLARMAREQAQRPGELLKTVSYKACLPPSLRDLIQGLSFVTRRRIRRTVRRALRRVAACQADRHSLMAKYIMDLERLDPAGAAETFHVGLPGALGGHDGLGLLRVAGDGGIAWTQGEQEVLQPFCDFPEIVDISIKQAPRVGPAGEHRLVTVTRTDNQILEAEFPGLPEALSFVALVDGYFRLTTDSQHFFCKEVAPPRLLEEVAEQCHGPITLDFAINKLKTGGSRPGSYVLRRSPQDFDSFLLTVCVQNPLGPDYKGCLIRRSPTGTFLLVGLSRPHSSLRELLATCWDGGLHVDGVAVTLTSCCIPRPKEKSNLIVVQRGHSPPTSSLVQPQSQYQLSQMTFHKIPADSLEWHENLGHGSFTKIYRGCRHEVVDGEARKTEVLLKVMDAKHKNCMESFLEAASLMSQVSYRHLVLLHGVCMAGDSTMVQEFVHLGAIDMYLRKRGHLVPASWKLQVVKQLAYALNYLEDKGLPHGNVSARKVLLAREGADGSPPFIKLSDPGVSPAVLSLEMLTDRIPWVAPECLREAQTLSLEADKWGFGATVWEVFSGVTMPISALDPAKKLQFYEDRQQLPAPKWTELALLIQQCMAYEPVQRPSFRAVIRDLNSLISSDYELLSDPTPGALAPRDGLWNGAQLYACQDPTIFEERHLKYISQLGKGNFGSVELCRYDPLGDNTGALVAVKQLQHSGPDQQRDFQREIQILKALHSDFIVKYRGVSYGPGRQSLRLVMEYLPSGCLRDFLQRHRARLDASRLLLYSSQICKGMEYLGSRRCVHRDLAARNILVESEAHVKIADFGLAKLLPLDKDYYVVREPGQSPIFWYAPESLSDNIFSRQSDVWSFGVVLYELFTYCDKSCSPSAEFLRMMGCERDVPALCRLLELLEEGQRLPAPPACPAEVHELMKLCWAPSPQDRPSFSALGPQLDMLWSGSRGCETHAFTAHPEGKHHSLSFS
- PROTOCOL_SUMMARY: JAK3 kinobeads assay
- STUDY_CONDITIONS: cell lysate, dot blot with JAK3 specific antibody
pIC50: −log10 of the molar value.
READOUT_NAME: pIC50

>>> df
                                 smiles_text  readout_name      measured
 0  CS(=O)(=O)Nc1ccccc1Nc1nc(Nc2cnn(CCCC#N)c2)ncc1Cl         pIC50        ≥ 7.00
 1  Cc1cc(Nc2ncc(Cl)c(Nc3ccccc3NS(C)(=O)=O)n2)nn1CC(F)(F)F         pIC50  6.00 to 7.00
 2  CCn1nccc1Nc1ncc(Cl)c(Nc2ccc(OC)cc2NS(C)(=O)=O)n1         pIC50  5.00 to 6.00
 3  COc1nn(CC(F)(F)F)cc1Nc1ncc(Cl)c(Nc2ccccc2NS(C)(=O)=O)n1         pIC50  6.00 to 7.00
 4  CS(=O)(=O)Nc1ccccc1Nc1nc(Nc2ccon2)ncc1Br         pIC50        ≥ 7.00
 5  Cn1ccc(Nc2ncc(Br)c(Nc3ccccc3NS(C)(=O)=O)n2)n1         pIC50        ≥ 7.00
 6  Cn1cc(Nc2ncc(Cl)c(Nc3ccccc3NS(=O)(=O)C3CC3)n2)cn1         pIC50        ≥ 7.00
 7  CCCn1ccc(Nc2ncc(Cl)c(Nc3cccc(F)c3NS(C)(=O)=O)n2)n1         pIC50  6.00 to 7.00
 8  COc1ccc(Nc2nc(Nc3cc(C4CC4)nn3C)ncc2Cl)c(NS(C)(=O)=O)c1         pIC50  6.00 to 7.00
 9  COc1ccc(Nc2nc(Nc3cnn(C)c3C)ncc2Cl)c(NS(C)(=O)=O)c1         pIC50  6.00 to 7.00
10  Cc1cc(Nc2ncc(Cl)c(Nc3cccc(F)c3NS(C)(=O)=O)n2)nn1C         pIC50  6.00 to 7.00
11  Cn1nc(Nc2ncc(Cl)c(Nc3ccccc3NS(C)(=O)=O)n2)cc1C(=O)NCCO         pIC50        ≥ 7.00
12  CS(=O)(=O)Nc1ccccc1Nc1nc(Nc2cnn(CC(F)F)c2)ncc1F         pIC50        ≥ 7.00
13  CC(C)n1ccc(Nc2ncc(Cl)c(Nc3ccccc3NS(=O)(=O)C3CC3)n2)n1         pIC50  5.00 to 6.00
14  CCS(=O)(=O)Nc1ccccc1Nc1nc(Nc2cc(C)n(C)n2)ncc1F         pIC50  5.00 to 6.00
15  Cn1ccc(Nc2ncc(Cl)c(Nc3cccc(F)c3NS(C)(=O)=O)n2)n1         pIC50        ≥ 7.00
16  COc1ccc(Nc2nc(Nc3cc(C)nn3CCO)ncc2Cl)c(NS(C)(=O)=O)c1         pIC50  5.00 to 6.00
17  COc1nn(CC(F)F)cc1Nc1ncc(Cl)c(Nc2ccccc2NS(C)(=O)=O)n1         pIC50        ≥ 7.00
18  COc1ccc(Nc2nc(Nc3cn(C)nc3C)ncc2Cl)c(NS(C)(=O)=O)c1         pIC50        ≥ 7.00
19  CCn1cc(Nc2ncc(F)c(Nc3ccc(OC)cc3NS(C)(=O)=O)n2)c(C)n1         pIC50  6.00 to 7.00
20  Cn1cc(Nc2ncc(Cl)c(Nc3ccccc3NS(C)(=O)=O)n2)cn1         pIC50        ≥ 7.00
21  COc1ccc(Nc2nc(Nc3c(C)nn(C)c3C)ncc2Cl)c(NS(C)(=O)=O)c1         pIC50  5.00 to 6.00
22  COc1nn(CC(F)F)cc1Nc1ncc(F)c(Nc2ccccc2NS(C)(=O)=O)n1         pIC50  6.00 to 7.00
23  Cn1cc(Nc2ncc(Br)c(Nc3ccccc3NS(C)(=O)=O)n2)cn1         pIC50        ≥ 7.00
24  Cn1ccc(Nc2ncc(Cl)c(Nc3ccccc3NS(=O)(=O)C3CC3)n2)n1         pIC50  6.00 to 7.00
25  Cc1cc(Nc2ncc(Cl)c(Nc3ccccc3NS(=O)(=O)C3CC3)n2)nn1C         pIC50  6.00 to 7.00
26  COc1ccc(Nc2nc(Nc3cnn(C)c3)ncc2Cl)c(NS(C)(=O)=O)c1         pIC50        ≥ 7.00
27  CCS(=O)(=O)Nc1ccccc1Nc1nc(Nc2ccn(C)n2)ncc1F         pIC50  5.00 to 6.00
28  Cn1cc(Nc2ncc(Cl)c(Nc3cccc(F)c3NS(C)(=O)=O)n2)cn1         pIC50        ≥ 7.00
29  COCCn1cc(Nc2ncc(Cl)c(Nc3ccccc3NS(C)(=O)=O)n2)cn1         pIC50        ≥ 7.00
30  COc1ccc(Nc2nc(Nc3nonc3OC)ncc2Cl)c(NS(C)(=O)=O)c1         pIC50  5.00 to 6.00
